# assay method text: Nuclear factor erythroid 2-related factor 2/antioxidant responsive element (Nrf2/ARE) small molecule agonists: qHTS cell viability counter screen in human keratinocytes (AID 1919968); note: nearly all actives have a fitted effect of over 55% in size
# test conditions: KeratinoSens HaCaT ARE cells viability, CellTiter-Fluor, 24 h; series mostly up to 92.4 µM
Results filed as inconclusive are left out. Calls of active or inactive are those of the source. Calls come from the whole dose curve; as a rule, active = well fitted cell-killing curve with a large enough effect in the repeat runs; inconclusive = weak or mixed curves, or effect the other way; inactive = flat fitted curve, though single readings scatter. Peptide text beside a SMILES is read from it.
Possible outcomes: yes (1) = active, no (0) = inactive

- compound: "COc1ccc(/C(C)=C/C(=O)O)c(OC)c1"
  assigned class: "no (0)"
- compound: "CC(C)(C)C(=O)O"
  assigned class: "no (0)"
- compound: "CC(=O)N[C@@H](CO)C(=O)N[C@@H](CC(=O)O)C(=O)N[C@@H](CCCCN)C(=O)N1CCC[C@H]1C(=O)O (Ac-SDKP-OH)"
  assigned class: "no (0)"
- compound: "COCCOC(=O)C1=C(C)NC(C)=C(C(=O)OC/C=C/c2ccccc2)C1c1cccc([N+](=O)[O-])c1 (stereo not given)"
  assigned class: "no (0)"
- compound: "Clc1ccc(C(Cn2ccnc2)OCc2c(Cl)cccc2Cl)c(Cl)c1 (stereo not given)"
  assigned class: "yes (1)"
- compound: "CCOC(=O)NNc1ccc(N(CC)CC(C)O)nn1 (stereo not given)"
  assigned class: "no (0)"
- compound: "SCCCCCCCCS"
  assigned class: "no (0)"
- compound: "CCOC(=O)[C@H](CCc1ccccc1)N[C@@H](C)C(=O)N1CCC[C@H]1C(=O)O"
  assigned class: "no (0)"
- compound: "Cc1cccc(CN2CCN(C(c3ccccc3)c3ccc(Cl)cc3)CC2)c1 (stereo not given)"
  assigned class: "yes (1)"
- compound: "FC1(F)C(F)(F)C(F)(F)C2(F)C(F)(C1(F)F)C(F)(F)C(F)(F)C1(F)C(F)(F)C(F)(F)C(F)(F)C(F)(F)C12F (stereo not given)"
  assigned class: "no (0)"
